Ref: patent US20220306744A1

Quick reference: EC50 of the listed items.
- assayTarget: T1, recombinant human PD-1 Fc chimera (human, UniProt Q15116 25-167)
- T1 construct: Bought protein (R&D 1086-PD in the HTRF assay); also called human PD-1-hu Fc; huPD-1Fc; not shown: human Fc
- T1 sequence (Q15116 25-167 limits assumed, change not shown): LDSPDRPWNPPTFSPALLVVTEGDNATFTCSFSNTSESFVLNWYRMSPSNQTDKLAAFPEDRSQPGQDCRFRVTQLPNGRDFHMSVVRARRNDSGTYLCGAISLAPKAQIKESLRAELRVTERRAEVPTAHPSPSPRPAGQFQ
- experimentalProtocol: HTRF binding assay, 2 nM recombinant PD1, anti His-D2 and anti human-Fc cryptate

binder	scaleUnit	EC50
1.92b-4GS-1.39a (other, Biparatopic VH-linker-VH; built from its parts here because it is not clear whether 1112 is the protein or the nucleic acid) EVQLVESGGGLVKPGGSLRLSCAASGFTFSDESMTWMRQAPGKGLEWVSYISSGGGVKFYADSVKGRFTISRDNAKNSLYLQMNSLRAEDTAVYYCAREAPLRLGESPHDAFDISGQGTMVTVSSGGGGSGGGGSGGGGSGGGGSEVQLVESGGGLVQPGRSLRLSCAASGFTFDDYALHWVRQAPGKDLEWVSGISWNGGSYGYADSVKGRFTISRDNAKNSLYLQMNSLRAEDTALYYCVREKGPGLTGSTADYYGLDAWGQGTMVTVSS	nM	2.1
1.57b-4GS-1.1a (other, Biparatopic VH-linker-VH) QVQLVESGGGLVKPGGSLRLSCAASGFTFSDNSMTWMRQAPGKGLEWVSYISSGGGVIFYADSVKGRFTISRDNAKNSLYLQMNSLRADDTAVYYCAREAPLRLGESPHDAFDISGQGTMVTVSSGGGGSGGGGSGGGGSGGGGSEVQLLESGGGSVQPGRSLRLSCAASGFTFDDHAMHWVRQAPGKGLEWVSGISWNSGSMGYADSVKDRFTISRDNAKSSLYLQMNSLRAEDTALYYCVREKGPGLTGSTADYYGLDVWGQGTMVTVSS	nM	1.2
1.92b-4GS-1.62a (other, Biparatopic VH-linker-VH; also called 1.92-4GS-1.62a; 1.92b-4gs-2.12a) EVQLVESGGGLVKPGGSLRLSCAASGFTFSDESMTWMRQAPGKGLEWVSYISSGGGVKFYADSVKGRFTISRDNAKNSLYLQMNSLRAEDTAVYYCAREAPLRLGESPHDAFDISGQGTMVTVSSGGGGSGGGGSGGGGSGGGGSEVQLVESGGGVVRPGGSLRLSCAASGFTFDDYAMSWVRQAPGKGLEWVSGITWNAGSTGYADSVKGRFTISRDNAKNSLYLQMNSLRAEDTALYYCVRDKYSYAWSYDDFDIWGQGTMVTVSS	nM	2.1
